- study system: AC1 (Homo sapiens, UniProt Q08828)
- Sequence (Q08828 whole entry): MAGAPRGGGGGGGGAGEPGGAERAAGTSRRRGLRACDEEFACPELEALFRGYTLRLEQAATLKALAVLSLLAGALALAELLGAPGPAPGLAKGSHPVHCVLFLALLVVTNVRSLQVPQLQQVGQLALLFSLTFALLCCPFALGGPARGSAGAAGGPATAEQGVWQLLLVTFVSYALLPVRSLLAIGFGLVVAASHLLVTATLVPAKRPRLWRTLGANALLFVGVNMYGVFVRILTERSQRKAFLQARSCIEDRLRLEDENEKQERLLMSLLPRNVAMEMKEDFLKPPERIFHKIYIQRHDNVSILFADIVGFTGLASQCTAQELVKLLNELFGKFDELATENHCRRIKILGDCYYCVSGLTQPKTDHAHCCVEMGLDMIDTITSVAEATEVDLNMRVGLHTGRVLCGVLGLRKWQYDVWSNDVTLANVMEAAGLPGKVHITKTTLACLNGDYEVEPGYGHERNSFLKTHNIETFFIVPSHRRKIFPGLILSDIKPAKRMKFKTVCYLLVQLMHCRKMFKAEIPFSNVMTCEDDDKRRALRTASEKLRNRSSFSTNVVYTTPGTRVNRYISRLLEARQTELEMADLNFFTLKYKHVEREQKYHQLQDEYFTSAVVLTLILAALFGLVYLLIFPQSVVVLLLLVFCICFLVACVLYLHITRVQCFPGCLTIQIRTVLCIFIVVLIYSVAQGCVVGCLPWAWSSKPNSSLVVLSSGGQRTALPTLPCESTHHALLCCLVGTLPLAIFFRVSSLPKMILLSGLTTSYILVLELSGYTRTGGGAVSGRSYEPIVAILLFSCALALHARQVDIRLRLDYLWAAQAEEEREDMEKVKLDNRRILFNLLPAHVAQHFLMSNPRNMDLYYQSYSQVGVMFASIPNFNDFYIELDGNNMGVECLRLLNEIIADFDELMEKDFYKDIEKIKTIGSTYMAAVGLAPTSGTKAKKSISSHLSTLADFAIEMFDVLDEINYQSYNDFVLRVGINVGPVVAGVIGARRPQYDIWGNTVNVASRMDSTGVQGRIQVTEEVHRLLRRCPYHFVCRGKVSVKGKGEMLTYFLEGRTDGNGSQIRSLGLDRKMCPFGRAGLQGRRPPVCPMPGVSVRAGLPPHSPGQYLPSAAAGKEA
- experimental protocol: cAMP accumulation (HTRF) in HEK cells stably expressing AC1, stimulated with A23187
- Format: cell-based
- Set-up: expressed in transfected cells; host or cells: HEK cells stably expressing AC1 (HEK-AC1), G418 selection
- condition set: Table 1; HEK-AC1 cells, A23187-stimulated cAMP accumulation; read-out: AC1 IC50
measure: IC50 (nM)

Some compounds with known IC50 results, for comparison:
{"columns": ["structure", "units of measure", "IC50"],
 "data": [
  ["CCc1cc(=O)[nH]c(-n2nc(C)cc2NC(=O)c2ccco2)n1", "nM", 6100],
  ["CCc1ccc(C(=O)Nc2cc(C)nn2-c2nc(CC)cc(=O)[nH]2)cc1", "nM", 500],
  ["CCc1cc(=O)[nH]c(-n2nc(C)cc2NC(=O)c2ccc(C)cc2)n1", "nM", 700],
  ["CCc1cc(=O)[nH]c(-n2nc(C)cc2NC(=O)c2ccc(F)cc2)n1", "nM", 900],
  ["CCc1cc(=O)[nH]c(-n2nc(C)cc2NC(=O)c2cccc(Cl)c2)n1", "nM", 400]
]}

(1) CCc1cccc(C(=O)Nc2cc(C)nn2-c2nc(CC)cc(=O)[nH]2)c1
(2) CCc1cc(=O)[nH]c(-n2nc(C)cc2NC(=O)c2ccccc2)n1
Which record would sort first by descending IC50, 1 or 2 ? Give the chosen item's label as your response. 2

(1) CCc1cc(=O)[nH]c(-n2nc(C)cc2NC(=O)c2ccccc2C)n1
(2) CCc1cc(=O)[nH]c(-n2nc(C)cc2NC(=O)c2cccc(F)c2)n1
Between the two listed entries 1 and 2 , which has its IC50 at the higher number? Which one? Tell me its label. 1

* * *

- study system: AC8 (Homo sapiens, UniProt P40145)
- Sequence (P40145 whole entry, species assumed): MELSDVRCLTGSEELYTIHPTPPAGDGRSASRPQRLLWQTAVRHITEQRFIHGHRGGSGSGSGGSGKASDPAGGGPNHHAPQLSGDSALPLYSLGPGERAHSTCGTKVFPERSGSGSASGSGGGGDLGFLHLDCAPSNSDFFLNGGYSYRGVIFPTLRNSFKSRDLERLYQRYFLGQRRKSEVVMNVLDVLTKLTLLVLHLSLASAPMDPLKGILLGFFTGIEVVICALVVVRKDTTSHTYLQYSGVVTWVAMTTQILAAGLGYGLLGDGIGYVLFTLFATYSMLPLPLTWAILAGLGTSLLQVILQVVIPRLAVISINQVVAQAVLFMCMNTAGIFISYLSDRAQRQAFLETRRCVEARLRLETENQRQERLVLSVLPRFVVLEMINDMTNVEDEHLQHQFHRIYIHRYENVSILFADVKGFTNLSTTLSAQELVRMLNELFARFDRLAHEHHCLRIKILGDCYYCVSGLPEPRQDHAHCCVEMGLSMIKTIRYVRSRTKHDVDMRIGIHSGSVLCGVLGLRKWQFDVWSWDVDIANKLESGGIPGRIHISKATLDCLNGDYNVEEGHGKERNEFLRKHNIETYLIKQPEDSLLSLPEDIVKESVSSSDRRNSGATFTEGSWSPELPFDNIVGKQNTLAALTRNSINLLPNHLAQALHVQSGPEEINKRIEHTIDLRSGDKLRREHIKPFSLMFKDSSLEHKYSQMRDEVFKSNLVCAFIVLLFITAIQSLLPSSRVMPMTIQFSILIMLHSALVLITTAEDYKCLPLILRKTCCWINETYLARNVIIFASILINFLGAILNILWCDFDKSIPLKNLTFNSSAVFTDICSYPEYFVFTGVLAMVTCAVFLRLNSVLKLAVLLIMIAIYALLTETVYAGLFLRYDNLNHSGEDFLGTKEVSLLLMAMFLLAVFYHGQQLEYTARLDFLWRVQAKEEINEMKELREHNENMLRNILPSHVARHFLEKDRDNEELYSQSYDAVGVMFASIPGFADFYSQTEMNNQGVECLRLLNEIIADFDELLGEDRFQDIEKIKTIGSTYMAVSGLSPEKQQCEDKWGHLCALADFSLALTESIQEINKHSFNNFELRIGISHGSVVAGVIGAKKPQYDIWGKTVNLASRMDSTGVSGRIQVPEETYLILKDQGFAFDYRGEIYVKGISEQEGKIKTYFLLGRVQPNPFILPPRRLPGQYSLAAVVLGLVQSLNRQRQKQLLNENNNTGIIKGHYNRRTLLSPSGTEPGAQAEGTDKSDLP
- experimental protocol: cAMP accumulation (HTRF) in HEK cells stably expressing AC8, stimulated with A23187
- Format: cell-based
- Set-up: expressed in transfected cells; host or cells: HEK cells stably expressing AC8 (HEK-AC8), hygromycin B selection
- condition set: Table 1; maximum inhibition of AC8
measure: Max AC8 Inh (%)

Example results:
{"columns": ["structure", "measure", "test value"],
 "data": [
  ["CCc1cc(=O)[nH]c(-n2nc(C)cc2NC(=O)c2cccc(C(F)(F)F)c2)n1", "Max AC8 Inh (%)", 41],
  ["CCc1cc(=O)[nH]c(-n2nc(C)cc2NC(=O)c2cccc(C)c2)n1", "Max AC8 Inh (%)", 27],
  ["CCc1cc(=O)[nH]c(-n2nc(C)cc2NC(=O)c2ccc(F)cc2)n1", "Max AC8 Inh (%)", 52],
  ["CCc1cc(=O)[nH]c(-n2nc(C)cc2NC(=O)c2cccc(F)c2)n1", "Max AC8 Inh (%)", 55],
  ["CCc1cc(=O)[nH]c(-n2nc(C)cc2NC(=O)c2ccccc2F)n1", "Max AC8 Inh (%)", 46]
]}

(a) CCc1cc(=O)[nH]c(-n2nc(C)cc2NC(=O)c2cccc(SC)c2)n1
(b) CCc1cc(=O)[nH]c(-n2nc(C)cc2NC(=O)c2ccco2)n1
(c) CCc1cc(=O)[nH]c(-n2nc(C)cc2NC(=O)c2ccccc2C)n1
Order these by Max AC8 Inh (%), descending, and give the full ranking. Quick reminder: the answer is the labels in the order asked. a, b, c
(a: 52%, b: 20%, c: 11%)
